Numbers sourced from patent US8940739B2.

Target or test system: cDNA-expressed human hepatic CYP3A4 (Homo sapiens (Human))
Sequence (P08684 whole entry): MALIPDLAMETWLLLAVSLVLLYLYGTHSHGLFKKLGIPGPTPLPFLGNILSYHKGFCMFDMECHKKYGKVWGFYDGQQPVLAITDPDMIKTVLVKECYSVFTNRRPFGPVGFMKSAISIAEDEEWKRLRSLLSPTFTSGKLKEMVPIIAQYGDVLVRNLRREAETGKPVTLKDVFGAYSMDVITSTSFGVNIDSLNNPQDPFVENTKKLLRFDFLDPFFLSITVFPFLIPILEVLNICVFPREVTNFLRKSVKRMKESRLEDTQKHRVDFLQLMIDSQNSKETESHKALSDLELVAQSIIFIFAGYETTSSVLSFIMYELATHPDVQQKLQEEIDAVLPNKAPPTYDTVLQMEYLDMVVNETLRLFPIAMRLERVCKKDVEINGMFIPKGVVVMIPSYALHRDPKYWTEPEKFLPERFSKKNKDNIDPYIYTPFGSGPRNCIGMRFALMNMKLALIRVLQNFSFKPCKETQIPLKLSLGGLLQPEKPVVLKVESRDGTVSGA
Experiment description: Measurement of CYP (IC50 of P450 CYP3A4), BFC substrate
Format: in vitro ADME
Study conditions: 20 minutes
Readout: IC50 (µM)
One number for each entry, in µM.

C=CCN1CC(=O)N2[C@@H](Cc3ccc(O)cc3)C(=O)N(Cc3cccc4c(C(=O)N5CCOCC5)cn(C)c34)C[C@@H]2N1C(=O)NCc1ccccc1 3.9
C=CCN1CC(=O)N2[C@@H](Cc3ccc(O)cc3)C(=O)N(Cc3cccc4c(-c5ccc(NC(=O)NC6CCN(C)CC6)nc5)cn(C)c34)C[C@@H]2N1C(=O)NCc1ccccc1 2.92

Now consider the entry below.
Asked: Quick one: IC50 of `C=CCN1CC(=O)N2[C@@H](Cc3ccc(O)cc3)C(=O)N(Cc3cccc4c(C(=O)Nc5ccc(N(C)C)nc5)cn(C)c34)C[C@@H]2N1C(=O)NCc1ccccc1` ?
Given back: 6.75

---

System: MV-4-11 (human, Acute Myeloid Leukemia cell line) cells
Experiment description: Cell growth inhibition assay, GI50 of MV-4-11
Assay type: cell-based
Study conditions: Homo sapiens, MV4-11, 72 h, MV-4-11 cells
Record form. Attribute: log10(GI50). Fill in for each entry.
// units: nM (pre-log); metric: GI50; scale: log10

Molecule	Target or test system	log10(GI50)
C=CCN1CC(=O)N2[C@@H](Cc3ccc(O)cc3)C(=O)N(Cc3cccc4c(-c5ccc(C(=O)N(C)C)o5)cn(C)c34)C[C@@H]2N1C(=O)NCc1ccccc1 [Compound D-102]	MV-4-11 (human, Acute Myeloid Leukemia cell line) cells	0.20
C=CCN1CC(=O)N2[C@@H](Cc3ccc(O)cc3)C(=O)N(Cc3cccc4c(C(=O)N5CCN(C6CCCC6)CC5)cn(C)c34)C[C@@H]2N1C(=O)NCc1ccccc1 [Compound E-18]	MV-4-11 (human, Acute Myeloid Leukemia cell line) cells	1.32
C=CCN1CC(=O)N2[C@@H](Cc3ccc(O)cc3)C(=O)N(Cc3cccc4c(C(=O)NC5CCN(C(=O)OC(C)(C)C)CC5)cn(C)c34)C[C@@H]2N1C(=O)NCc1ccccc1 [Compound F-61]	MV-4-11 (human, Acute Myeloid Leukemia cell line) cells	0.20
C=CCN1CC(=O)N2[C@@H](Cc3ccc(O)cc3)C(=O)N(Cc3cccc4c(C(=O)Nc5ccc(OCCCN6CCCCC6)nc5)cn(C)c34)C[C@@H]2N1C(=O)NCc1ccccc1 [Compound G-31]	MV-4-11 (human, Acute Myeloid Leukemia cell line) cells	0.43
C=CCN1CC(=O)N2[C@@H](Cc3ccc(O)cc3)C(=O)N(Cc3cccc4c(C(=O)NCc5ccnc(N(C)C)c5)cn(C)c34)C[C@@H]2N1C(=O)NCc1ccccc1 [Compound F-48]	MV-4-11 (human, Acute Myeloid Leukemia cell line) cells	1.03

Batch request: log10(GI50) for each of the following molecules.
1. C=CCN1CC(=O)N2[C@@H](Cc3ccc(O)cc3)C(=O)N(Cc3cccc4c(-c5ccc(C(=O)NC)o5)cn(C)c34)C[C@@H]2N1C(=O)NCc1ccccc1 [Compound D-101]
2. C=CCN1CC(=O)N2[C@@H](Cc3ccc(O)cc3)C(=O)N(Cc3cccc4c(C(=O)Nc5ccc(N6CC(N7CCN(C)CC7)C6)nc5)cn(C)c34)C[C@@H]2N1C(=O)NCc1ccccc1 [Compound G-62]
3. C=CCN1CC(=O)N2[C@@H](Cc3ccc(O)cc3)C(=O)N(Cc3cccc4c(-c5ccc(C(=O)NC6CCN(C)CC6)o5)cn(C)c34)C[C@@H]2N1C(=O)NCc1ccccc1 [Compound D-103]

Given back:
[0.76, 0.15, 1.03]
